These entries and their values trace back to the supplement of paper PMC10567573.

B1: SFRS1 (parent)
chain: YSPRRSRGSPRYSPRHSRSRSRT

variants of: B1; assay: protein stability index of a GFP-peptide fusion (GPS, HEK-293T) (PSI 1-6); higher = more stable; details: c terminus: native;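 note: lentivirally expressed fusions sorted by FACS into six bins by GFP to DsRed ratio, PSI derived from sequencing read proportions per bin multiplied by bin number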

mutant name	protein stability index
R11V	3.05
S6V	3.09
R7I	1.66
R11Y	2.54
S9I	3.1
R7N	2.92
R20Q	4.04
S2W	4.07
R4Y	2.56
T23C	3.5
S2I	3.27
S6Y	3.29
P10I	3.41
S19P	4.39
S6F	3.27
G8R	4.58
R7T	3.13
R5Y	3.01
R18T	3.46
S13L	3.89
S9M	3.07
S17G	3.53
S9P	3.86
Y12E	4.47
Y12I	3.72
